Data provenance is ChEMBL document CHEMBL2150865.

test system: Rattus norvegicus; experiment: AUC in Sprague-Dawley rat at 20 mg/kg, sc administered as single dose; type: ADME, organism-based, Plasma; design: dose 20 mg/kg, route subcutaneous; details: in vivo
readout: AUC

Need AUC of C[C@H](N)C(=O)N[C@@H](C)P(=O)(O)O , thanks. 25000 ng·h/mL

* * *

assay: AUC in healthy human at 10 mg dosed as single daily dose; format: ADME, organism-based; conditions: plasma
readout: AUC (ng·h/mL)
Please reply with the bare figure in ng·h/mL and do not write the unit itself.

Can you look up the measured AUC of CCC(=O)O[C@@H](O[P@](=O)(CCCCc1ccccc1)CC(=O)N1C[C@H](C2CCCCC2)C[C@H]1C(=O)O)C(C)C for me? 1000

* * *

target: Angiotensin-converting enzyme (Homo sapiens, UniProt P12821); test: Inhibition of ACE
Sequence (P12821 whole entry, the tested form may be a part): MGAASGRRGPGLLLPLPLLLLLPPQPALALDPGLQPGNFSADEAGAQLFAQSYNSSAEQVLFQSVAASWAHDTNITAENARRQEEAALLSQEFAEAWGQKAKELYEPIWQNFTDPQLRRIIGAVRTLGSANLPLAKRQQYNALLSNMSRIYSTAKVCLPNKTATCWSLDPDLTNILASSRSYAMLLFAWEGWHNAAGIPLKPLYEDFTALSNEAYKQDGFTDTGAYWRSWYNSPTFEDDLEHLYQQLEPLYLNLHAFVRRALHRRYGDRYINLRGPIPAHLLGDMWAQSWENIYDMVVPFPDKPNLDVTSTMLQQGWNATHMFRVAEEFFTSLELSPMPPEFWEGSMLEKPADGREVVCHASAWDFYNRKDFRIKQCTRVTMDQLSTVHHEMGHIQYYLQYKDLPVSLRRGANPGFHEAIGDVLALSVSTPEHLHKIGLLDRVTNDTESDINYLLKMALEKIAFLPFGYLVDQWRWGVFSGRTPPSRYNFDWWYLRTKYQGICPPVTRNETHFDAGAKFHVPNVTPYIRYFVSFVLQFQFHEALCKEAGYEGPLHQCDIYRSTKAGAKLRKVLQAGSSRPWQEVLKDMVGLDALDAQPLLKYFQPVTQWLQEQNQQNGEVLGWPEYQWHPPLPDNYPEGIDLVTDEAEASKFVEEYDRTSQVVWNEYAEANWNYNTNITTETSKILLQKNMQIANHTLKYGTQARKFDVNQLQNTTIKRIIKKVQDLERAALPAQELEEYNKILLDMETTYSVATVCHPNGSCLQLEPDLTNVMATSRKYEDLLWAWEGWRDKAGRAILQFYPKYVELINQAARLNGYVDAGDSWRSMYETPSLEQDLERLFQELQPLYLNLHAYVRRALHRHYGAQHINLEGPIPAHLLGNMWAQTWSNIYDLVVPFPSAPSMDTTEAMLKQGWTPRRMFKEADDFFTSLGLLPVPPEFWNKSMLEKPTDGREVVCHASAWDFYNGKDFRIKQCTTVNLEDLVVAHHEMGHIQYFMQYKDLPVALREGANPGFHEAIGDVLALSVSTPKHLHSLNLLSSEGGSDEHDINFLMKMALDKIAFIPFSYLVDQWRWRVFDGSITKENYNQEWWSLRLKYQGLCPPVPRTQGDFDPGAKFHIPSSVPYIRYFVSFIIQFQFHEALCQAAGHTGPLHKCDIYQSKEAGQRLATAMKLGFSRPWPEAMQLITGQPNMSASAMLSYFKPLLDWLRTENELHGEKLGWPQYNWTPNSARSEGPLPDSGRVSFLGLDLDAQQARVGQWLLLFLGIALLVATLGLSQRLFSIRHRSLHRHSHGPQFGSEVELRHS
readout: pKi
Please report pKi as the negative decimal logarithm of the molar concentration, giving only the number.

Could you tell me which pKi is on file for O=C(O)[C@@H]1C[C@@H](C2CCCCC2)CN1C(=O)CP(=O)(O)CCCCc1ccccc1 ? 8.82

* * *

assay: Half life in human at 200 mg, im; assay type: ADME, organism-based; details: in vivo
readout: half-life

Sample C[C@H](N)C(=O)N[C@@H](C)P(=O)(O)O — what was its half-life? 60 min

* * *

biological target: Angiotensin-converting enzyme (Homo sapiens, UniProt P12821); assay: Inhibition of human ACE C-terminal domain expressed in CHO cells after 90 mins by fluorescence assay; format: cell-based
Some molecules, each annotated with its measured Ki.
I only need the number, in µM, no unit after it.

> print(dat)
                                   molecule  readout  unit.string  observed.value
1  O=C(N[C@@H](Cc1ccccc1)P(=O)(O)C1CCC[C@H]1C(=O)N[C@@H](Cc1c[nH]c2ccccc12)C(=O)O)OCc1ccccc1 (some centres not stated)       Ki           µM           0.003

Next item in the queue.
For the record CC(=O)N[C@@H](CC(=O)O)C(=O)N[C@@H](Cc1ccccc1)P(=O)(O)C[C@@H](C)C(=O)N[C@@H](C)C(N)=O , what value of Ki is listed for Angiotensin-converting enzyme (Homo sapiens, UniProt P12821)? 7.5

* * *

target: Angiotensin-converting enzyme (Homo sapiens)
readout: pIC50
// pIC50 is dimensionless: -log10 of concentration (M)

Item under review: O=C(N[C@@H](CCc1ccccc1)CP(=O)(O)CC(=O)N1CCC[C@H]1C(=O)O)c1ccccc1 . Reported pIC50? 7.92

* * *

experiment: Tmax in Sprague-Dawley rat at 20 mg/kg, sc administered as single dose; format: ADME, organism-based; parameters: dose 20 mg/kg, route subcutaneous; conditions: in vivo
readout: Tmax (min)
# output: bare number, implied unit min

Form field: reported Tmax of C[C@H](N)C(=O)N[C@@H](C)P(=O)(O)O [ALAFOSFALIN] 20

* * *

target: Angiotensin-converting enzyme (Homo sapiens); assay: Inhibition of human ACE N-terminal domain expressed in CHO cells after 90 mins by fluorescence assay; assay type: cell-based
readout: pKi
Please treat pKi as minus the base-10 logarithm of the molar concentration.

> print(dat)
                                   compound  observed.value
1  CC(=O)N[C@@H](CC(=O)O)C(=O)N[C@@H](Cc1ccccc1)P(=O)(O)C[C@@H](C)C(=O)N[C@@H](C)C(N)=O            8.15

Then there is this compound:
API: value(readout= pKi, system= Angiotensin-converting enzyme (Homo sapiens), query= O=C(N[C@@H](Cc1ccccc1)P(=O)(O)C1CCC[C@H]1C(=O)N[C@@H](Cc1c[nH]c2ccccc12)C(=O)O)OCc1ccccc1 (some centres not stated) ) 5.00

* * *

experiment: Drug absorption in healthy human at 10 mg dosed as single daily dose; type: ADME, organism-based; details: in vivo, read-out: Drug absorption
readout: Fa (%)
Reply numerically in %, unit not repeated.

So what does the record say about Fa for CCC(=O)O[C@@H](O[P@](=O)(CCCCc1ccccc1)CC(=O)N1C[C@H](C2CCCCC2)C[C@H]1C(=O)O)C(C)C ? 30
